assayName: Cytotoxicity against HEK293 cells transfected with pcDNA3.1 assessed as inhibition of cell viability at 5 to 25 uM incubated for 2 by MTT assay relative to control
Format: cell-based
conditionDescription: human, read-out: INH
For each of the compounds below, state its cytotoxicity at up to 25 µM.

COc1ccc(C(=O)c2c[nH]c3ccc(OC)cc23)cc1 = < 20%

We now examine a further compound.
Request: # query: cytotoxicity at up to 25 µM of entry `COc1ccc(C(=O)c2ccc3[nH]cc(C(=O)c4ccc(OC)cc4)c3c2OC)cc1`
Result: < 20%

###

System: NCI-H460
assayName: Cytotoxicity against human NCI-H460 cells assessed as inhibition of cell viability incubated for 2 hrs by MTT assay
Type: cell-based
conditionDescription: NCI-H460, 2 h
valueType: IC50 (µM)
Give bare numbers, in µM.

Request: Item O=C1c2c(O)ccc(O)c2C(=O)c2c(NCCNCCO)ccc(NCCNCCO)c21 [MITOXANTRONE] with NCI-H460 - IC50?
Result: 0.36

###

assayName: Cytotoxicity against human S1-M1-80 cells assessed as inhibition of cell viability at 5 to 25 uM incubated for 2 hrs by MTT assay relative to control
Format: cell-based
conditionDescription: read-out: INH
valueType: cytotoxicity at 2 h, up to 25 µM

COc1ccc(C(=O)c2c[nH]c3ccc(OC)cc23)cc1 = < 20%

# context switch: different compound, same cytotoxicity at 2 h, up to 25 µM
Request: Please report the recorded cytotoxicity at 2 h, up to 25 µM for `COc1ccc(C(=O)c2ccc3[nH]cc(C(=O)c4ccc(OC)cc4)c3c2OC)cc1` .
Result: < 20%

###

Test system: NCI-H460
assayName: Cytotoxicity against human NCI-H460 cells assessed as concentration that causes inhibition of cell viability by <=20% incubated for 24 hrs by MTT assay
Format: cell-based
conditionDescription: nci-h460, 24 h
valueType: Activity (µM)
Answers are plain numbers, in µM.

I would be grateful if you could provide Activity for each of the following entries.
1. O=C(c1ccc(O)cc1)c1c[nH]c2cccc(O)c12
2. COc1ccc(C(=O)c2c[nH]c3cccc(OC)c23)c(OC)c1

Result:
1: 25; 2: 25

For each of the molecules below, note its Activity.
1. COc1cccc(C(=O)c2c[nH]c3ccc(OC)cc23)c1
2. COc1ccc2[nH]cc(C(=O)c3ccccc3OC)c2c1
3. O=C(c1ccc(O)cc1O)c1c[nH]c2c(O)cccc12
4. O=C(c1ccccc1O)c1c[nH]c2ccc(O)cc12
5. COc1cc(C(=O)c2c[nH]c3cccc(OC)c23)cc(OC)c1OC

Result:
1: 10; 2: 1; 3: 10; 4: 25; 5: 1

Please state Activity for every molecule in the list that follows.
1. O=C(c1ccc(O)cc1)c1ccc2[nH]cc(C(=O)c3ccc(O)cc3)c2c1O
2. O=C(c1cc(O)c(O)c(O)c1)c1c[nH]c2ccc(O)cc12
3. COc1ccc2[nH]cc(C(=O)c3c(OC)cccc3OC)c2c1
4. O=C(c1c(O)cccc1O)c1c[nH]c2ccc(O)cc12
5. COc1ccc(C(=O)c2c[nH]c3ccc(OC)cc23)c(OC)c1
6. O=C(c1ccc(O)cc1O)c1c[nH]c2cccc(O)c12

Result:
25
25
1
10
25
25

###

assayName: Cytotoxicity against human NCI-H460/MX20 cells assessed as concentration that causes inhibition of cell viability by <=20% incubated for 24 hrs by MTT assay
Format: cell-based
valueType: Activity (µM)
One number for each entry, in µM.

Worked cases, answers included:
O=C(c1ccc(O)cc1O)c1c[nH]c2cccc(O)c12 = 25
COc1ccc(C(=O)c2c[nH]c3cccc(OC)c23)cc1 = 10
O=C(c1cccc(O)c1)c1c[nH]c2ccc(O)cc12 = 25
COc1ccc(C(=O)c2c[nH]c3ccc(OC)cc23)cc1 = 10

Report Activity for every entry below.
1. COc1cc(C(=O)c2c[nH]c3cccc(OC)c23)cc(OC)c1OC
2. COc1cccc(C(=O)c2c[nH]c3ccc(OC)cc23)c1
3. COc1ccc(C(=O)c2c[nH]c3c(OC)cccc23)c(OC)c1

Result:
[1, 10, 10]
